experiment: Percent inhibitory activity at 8 uM against rhinoviral 2 serotype in a plaque inhibition assay using monolayers of M-HeLa cells; assay type: functional, Homo sapiens
measure_name: Inhibition (%)
Quick reminder: number only, in %, skip the unit.

INSERT INTO assay_data (substance_smiles, measure_name, value_observed) VALUES
  ('CN(C)c1nc(C(F)(F)F)nc2c1ncn2Cc1ccc(S(C)(=O)=O)cc1', 'Inhibition', 36);

Challenge: Name the recorded Inhibition of the item CN(C)c1nc(C(F)(F)F)nc2c1ncn2Cc1ccccc1 in your answer.
Response given: 33

Challenge: Name the recorded Inhibition of the item CN(C)c1nc(C(F)(F)F)nc2c1ncn2Cc1ccc(Cl)c(NC=O)c1 in your answer.
Response given: 35

Challenge: Name the recorded Inhibition of the item CN(C)c1nc(C(F)(F)F)nc2c1ncn2Cc1ccc(F)cc1 in your answer.
Response given: 27
